- Test system: MCF7
- test.method.notes: Growth inhibition of human MCF7 cells by sulforhodamine B assay
- Assay type: functional
- condition: Homo sapiens, MCF7
measurement.label: GI50 (nM)
Response body: numeric value in nM, unit text excluded.

Worked examples follow.
molecule	assayed.target	GI50, nM
C=C1C[C@H](C)C(=O)N[C@@H](C)C(=O)N(C)[C@H](Cc2c(Br)[nH]c3ccccc23)C(=O)N[C@@H](c2ccc(O)cc2)CC(=O)O[C@@H](C)C[C@@H](C)C1=O [JASPLAKINOLIDE B]	MCF7	130
C/C1=C\[C@H](C)C[C@H](C)OC(=O)C[C@H](c2ccc(O)cc2)NC(=O)[C@@H](Cc2c(Br)[nH]c3ccccc23)N(C)C(=O)[C@H](CO)NC(=O)[C@@H](C)C1 [JASPAMIDE E]	MCF7	180

Now turn to the next molecule.
Query (molecule): C/C1=C\[C@H](C)C[C@H](C)OC(=O)C[C@H](c2ccc(O)cc2)NC(=O)[C@@H](C[C@]2(O)C(=O)Nc3ccccc32)N(C)C(=O)C(C)NC(=O)[C@@H](C)C1 (some centres undefined) [JASPLAKINOLIDE S] ; field requested: GI50
2300

Ref: ChEMBL document CHEMBL1165849
